# tgt: M^pro of SARS-COV2 (Severe acute respiratory syndrome coronavirus 2)
# measurement description: Inhibitory activity against M^pro of SARS-COV2 (Ac-Abu-Tle-Leu-Gln-MCA fluorescent substrate), Example 4
# Assay type: biochemical
# setup conditions: 2 μg/ml M^pro, 5 min preincubation, 37° C., pH 7.4, 10 μM Ac-Abu-Tle-Leu-Gln-MCA; read-out: IC50 value calculated from the regression curve
pIC50: −log10 of the molar value.
attribute measured: pIC50

[
  {
    "molecule": "C[N+](C)(C)C(Cc1cnc([SeH])[nH]1)C(=O)O (stereo not shown)",
    "attribute measured": "pIC50",
    "reported": 6.27
  }
]
